Documented percent inhibition of viability across a set of molecules
System: normal primary NK cells, pool 3 (3 donors) (IL-2 2.5 ng/mL);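 also: normalised to DMSO-only wells as negative and benzethonium chloride as positive control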
testName: percent inhibition of viability; higher = more inhibition
conditionNotes: 72 h; 10000 nM
Kindly answer with a numeric value in %, unit omitted.

Sample O=C1NC(=O)/C(=C/c2ccc3nccc(-c4ccncc4)c3c2)S1 (max concentration tested 10000 nM) — what was its percent inhibition of viability?
69.4

Sample O=C(O)CC1CC(c2ccccc2)=NO1 (centres undefined) [VGX-1027] (max concentration tested 10000 nM) — what was its percent inhibition of viability?
6.93

Sample COc1cc(O)c2c(c1)/C=C/C[C@H](O)[C@H](O)C(=O)/C=C\C[C@H](C)OC2=O [(5Z)-7-Oxozeaenol] (max concentration tested 10000 nM) — what was its percent inhibition of viability?
98.2

Sample NC(=O)c1ccc(I)c([N+](=O)[O-])c1 [Iniparib] (max concentration tested 10000 nM) — what was its percent inhibition of viability?
19.3
